Reference source for all entries: ChEMBL document CHEMBL1201862

I'd appreciate it if you could supply GI50 values for the items below.
tested on: LOX IMVI; assay: NCI tumour cell line growth inhibition, 48 h
Calls of active or inactive are those of the source. Rule as the data show it: active = GI50 up to about 1.1 µM and inactive = higher.

CCN1CCCCC(=N\O)/C(=N/O)CCCC1 : > 100 µM (inactive)
CC1CC=CC(O)C1 (stereo not drawn) : > 100 µM (inactive)

Record GI50 per entry; entries follow.
1. O=S1(=O)c2ccccc2N=C(c2ccccc2Cl)CC1c1ccc(F)cc1 (stereo not drawn)
2. O=[N+]([O-])/C(C(Cl)=C(Cl)Cl)=C(/Nc1ccccc1)SCc1ccccc1
3. CC(C)/C(Cl)=N/OC(=O)Nc1ccc(Cl)c(Cl)c1
4. C=C(C(=O)O)[C@@H]1C[C@@H]2O[C@H]1CC(C)=CCC/C(C)=C/CC[C@@]2(C)O
5. Nc1ccc(Sc2c3ccccc3nc3ccccc23)cc1
6. COC(=O)C(=O)C(C(=O)Nc1cccc(C)c1C)C1Sc2ccccc2NC1=O (stereo not drawn)
7. CCCCCC(=O)Nc1[nH]nnc1C(N)=O
8. CC(c1ccccc1)N1CC(C)(c2ccccc2)N(O)C(c2ccccc2)C1C (stereo not drawn)

1: 16.7 µM (inactive); 2: 20.5 µM (inactive); 3: 1.64 µM (inactive); 4: > 100 µM (inactive); 5: 5.62 µM (inactive); 6: 13.9 µM (inactive); 7: > 100 µM (inactive); 8: 12.2 µM (inactive)
